The measured values listed here are drawn from patent US10562912B2.

- System: LNCaP
- assay-procedure: Cell growth inhibition assay, prostate cancer cell line LNCaP (medium with 10 ng/mL IL-6)
- Format: cell-based
- condition-details: Homo sapiens, medium supplemented with 10 ng/mL of IL-6, 10,000 cells/well
endpoint: IC50

structure-string | IC50
CS(=O)(=O)Nc1ccc2cc(C(=O)Nc3cccc(S(=O)(=O)c4ccccn4)c3)[nH]c2c1 | > 10 µM

For the 2 molecules below, give their IC50 values.
1. CS(=O)(=O)Nc1ccc2cc(C(=O)Nc3cccc(-c4ccc(N)cc4C(F)(F)F)c3)[nH]c2c1
2. O=C(Nc1cccc(-c2ccccc2C(F)(F)F)c1)c1cc2ccc([N+](=O)[O-])cc2[nH]1

Result:
> 10 µM
> 10 µM
